Assay: Tested for equilibrium competition binding to InsP3 receptor in hepatic membranes using 1.3-1.8 nM [3H]Ins(1,4,5)P3 as the radioligand.
Format: functional, cell membranes, Rattus norvegicus, Liver, Membrane
Here, each record is paired with measured Ki data.
Give just the numeric value; nM need not be written.

The cases that follow already have their Ki on record.
>>> result("O=P(O)(O)O[C@@H]1[C@H](O)[C@@H](O[C@H]2[C@@H](OP(=O)(O)O)[C@H](n3cnc4cncnc43)O[C@@H]2CO)O[C@@H](CO)[C@H]1OP(=O)(O)O [PURINOPHOSTIN]")
0.8
>>> result("Nc1ncnc2c1ncn2[C@@H]1O[C@H](CO)[C@@H](O[C@H]2O[C@@H](CO)[C@@H](OP(=O)(O)O)[C@H](OP(=O)(O)O)[C@@H]2O)[C@H]1OP(=O)(O)O")
0.45
>>> result("O=P(O)(O)O[C@@H]1[C@H](O)[C@@H](O)[C@@H](OP(=O)(O)O)[C@H](OP(=O)(O)O)[C@@H]1O")
2.72

[in] Sample O=P(O)(O)O[C@@H]1[C@H](O)[C@@H](O[C@H]2[C@@H](OP(=O)(O)O)[C@H](n3ccnc3)O[C@@H]2CO)O[C@@H](CO)[C@H]1OP(=O)(O)O — what was its Ki?
[out] 2.19

----------
Species: Rattus norvegicus
Assay: Tested for concentration of ligand causing half maximal response of Calcium ion release from permeabilised hepatocytes
Format: functional
Condition notes: Hepatocyte
Here, each record is paired with measured pEC50 data.
Would you please state pEC50, meaning minus log10 of the concentration in mol/L, as a bare number?

>>> result("O=P(O)(O)O[C@@H]1[C@H](O)[C@@H](O[C@H]2[C@@H](OP(=O)(O)O)[C@H](n3ccnc3)O[C@@H]2CO)O[C@@H](CO)[C@H]1OP(=O)(O)O")
6.97
>>> result("O=P(O)(O)O[C@@H]1[C@H](O)[C@@H](O)[C@@H](OP(=O)(O)O)[C@H](OP(=O)(O)O)[C@@H]1O")
6.92
>>> result("O=P(O)(O)O[C@@H]1[C@H](O)[C@@H](O[C@H]2[C@@H](OP(=O)(O)O)[C@H](n3cnc4cncnc43)O[C@@H]2CO)O[C@@H](CO)[C@H]1OP(=O)(O)O [PURINOPHOSTIN]")
7.74

Please turn your attention to the following entry.
[in] Sample Nc1ncnc2c1ncn2[C@@H]1O[C@H](CO)[C@@H](O[C@H]2O[C@@H](CO)[C@@H](OP(=O)(O)O)[C@H](OP(=O)(O)O)[C@@H]2O)[C@H]1OP(=O)(O)O — what was its pEC50?
[out] 7.85
